All values here come from the supplement of paper PMC11061612.

system: MOG-G-CCM (Low Grade Glioma); test: combination Emax (second highest fraction inhibited in the dose matrix, 72 h); higher = more inhibition; extreme values may be limits of the assay
QUANTITY_NAME: combination Emax
Give a plain numeric answer without units written out.

COMPOUND	OBS_VALUE
CN(C)CCCOc1ccc(-c2ccc3ncc4c(c3c2)n(C2CCOCC2)c(=O)n4C)cn1 [AZD0156] + C[C@@H]1COCCN1C2=NC(=NC(=C2)C3(CC3)[S@](=N)(=O)C)C4=C5C=CNC5=NC=C4 [AZD6738] (first compound max 1 µM, 7x7, partner max 10 µM)	0.413
CC1(C)CCC(CN2CCN(c3ccc(C(=O)NS(=O)(=O)c4ccc(NCC5CCOCC5)c([N+](=O)[O-])c4)c(Oc4cnc5[nH]ccc5c4)c3)CC2)=C(c2ccc(Cl)cc2)C1 [Venetoclax] + Cc1cc2ncnn2cc1Nc1ncc2c(n1)n(C1CCOCC1)c(=O)n2C [AZD7648] (first compound max 1 µM, 7x7, partner max 10 µM)	0.303

Now turn to the next compound.
Fill in the blank: the reported combination Emax of CC1(C)CCC(CN2CCN(c3ccc(C(=O)NS(=O)(=O)c4ccc(NCC5CCOCC5)c([N+](=O)[O-])c4)c(Oc4cnc5[nH]ccc5c4)c3)CC2)=C(c2ccc(Cl)cc2)C1 [Venetoclax] + C=CCn1c(=O)c2cnc(Nc3ccc(N4CCN(C)CC4)cc3)nc2n1-c1cccc(C(C)(C)O)n1 [AZD1775] (first compound max 1 µM, partner max 1 µM) is ____.
0.688

###

tested on: M059J (Glioblastoma); assay: combination Emax (second highest fraction inhibited in the dose matrix, 72 h); higher = more inhibition; extreme values may be limits of the assay
QUANTITY_NAME: combination Emax
Reply with the value as a number alone.

Please review the following examples before continuing.
MOLECULE	combination Emax
Cn1cnc2c(F)c(Nc3ccc(Br)cc3Cl)c(C(=O)NOCCO)cc21 [Selumetinib] + CCN(CCO)CCCOc1ccc2c(Nc3cc(CC(=O)Nc4cccc(F)c4)[nH]n3)ncnc2c1 [AZD2811] (first compound max 10 µM, 7x7, partner max 1 µM)	0.237
COc1nnc2ccc(N3CCC(c4ccc(OCCN5CCN(C)C(=O)[C@H]5C)cc4)CC3)nn12 [AZD5153] + Cc1c2c(nn1C)CSCc1cc(n(C)n1)CSc1cc(c3ccccc3c1)OCCCc1c(C(=O)O)n(C)c3c-2c(Cl)ccc13 [AZD5991] (first compound max 1 µM, 7x7, partner max 1 µM)	0.864
C=CCn1c(=O)c2cnc(Nc3ccc(N4CCN(C)CC4)cc3)nc2n1-c1cccc(C(C)(C)O)n1 [AZD1775] + O=C(c1cc(Cc2n[nH]c(=O)c3ccccc23)ccc1F)N1CCN(C(=O)C2CC2)CC1 [Olaparib] (first compound max 1 µM, partner max 10 µM)	0.618

Moving on to the next molecule.
Reported combination Emax, molecule Cn1cnc2c(F)c(Nc3ccc(Br)cc3Cl)c(C(=O)NOCCO)cc21 [Selumetinib] + CC(C)n1c(=O)n(C)c2cnc3cc(F)c(-c4ccc(OCCCN5CCCCC5)nc4)cc3c21 [AZD1390] (first compound max 10 µM, 7x7, partner max 0.3 µM) : ____
0.107

###

test system: ESO51 (Esophageal Adenocarcinoma); experiment: combination Emax (second highest fraction inhibited in the dose matrix, 72 h); higher = more inhibition; extreme values may be limits of the assay
QUANTITY_NAME: combination Emax

MOLECULE	combination Emax
CC1(C)CCC(CN2CCN(c3ccc(C(=O)NS(=O)(=O)c4ccc(NCC5CCOCC5)c([N+](=O)[O-])c4)c(Oc4cnc5[nH]ccc5c4)c3)CC2)=C(c2ccc(Cl)cc2)C1 [Venetoclax] + CCN(CCO)CCCOc1ccc2c(Nc3cc(CC(=O)Nc4cccc(F)c4)[nH]n3)ncnc2c1 [AZD2811] (first compound max 1 µM, 7x7, partner max 1 µM)	0.117
CC1(C)CCC(CN2CCN(c3ccc(C(=O)NS(=O)(=O)c4ccc(NCC5CCOCC5)c([N+](=O)[O-])c4)c(Oc4cnc5[nH]ccc5c4)c3)CC2)=C(c2ccc(Cl)cc2)C1 [Venetoclax] + C[C@@H]1COCCN1C2=NC(=NC(=C2)C3(CC3)[S@](=N)(=O)C)C4=C5C=CNC5=NC=C4 [AZD6738] (first compound max 1 µM, 7x7, partner max 10 µM)	0.82

Look up combination Emax for this molecule: CN(CCO)CC[C@H](CSc1ccccc1)Nc1ccc(S(=O)(=O)NC(=O)c2ccc(N3CCC([C@@H](O)c4ccccc4-c4ccc(Cl)cc4)CC3)cc2)cc1S(=O)(=O)C(F)(F)F [AZD4320] + C[C@@H]1COCCN1C2=NC(=NC(=C2)C3(CC3)[S@](=N)(=O)C)C4=C5C=CNC5=NC=C4 [AZD6738] (first compound max 1 µM, 7x7, partner max 10 µM)
0.861
